Assay: Nilotinib in plasma and CSF by mass spectrometry
Details: human, in vivo, 300 mg, Cmax, Plasma; 300 mg daily
measured_property: Cmax

Could you share which Cmax value was measured for Cc1cn(-c2cc(NC(=O)c3ccc(C)c(Nc4nccc(-c5cccnc5)n4)c3)cc(C(F)(F)F)c2)cn1 ?
1410 nM

====

Assay: Nilotinib in plasma and CSF by mass spectrometry
Conditions: human, in vivo, 150 mg, AUC, Plasma; 150 mg daily
measured_property: AUC (ng·h/mL)
Answers are plain numbers, in ng·h/mL.

AUC for Cc1cn(-c2cc(NC(=O)c3ccc(C)c(Nc4nccc(-c5cccnc5)n4)c3)cc(C(F)(F)F)c2)cn1 [nilotinib, Nilotinib] ?
2510

====

Experiment: Nilotinib in plasma and CSF by mass spectrometry
Details: human, in vivo, 300 mg, Cmax, CSF; 300 mg daily
measured_property: Cmax (nM)
One number for each entry, in nM.

Fill in the blank: the reported Cmax of Cc1cn(-c2cc(NC(=O)c3ccc(C)c(Nc4nccc(-c5cccnc5)n4)c3)cc(C(F)(F)F)c2)cn1 [nilotinib, Nilotinib] is ____.
4.7

====

Assay: Nilotinib in plasma and CSF by mass spectrometry
Conditions: human, in vivo, 150 mg, Cmax, Plasma; 150 mg daily
measured_property: Cmax (nM)
One number for each entry, in nM.

Could you share which Cmax value was measured for Cc1cn(-c2cc(NC(=O)c3ccc(C)c(Nc4nccc(-c5cccnc5)n4)c3)cc(C(F)(F)F)c2)cn1 [nilotinib, Nilotinib] ?
1100

====

Test: Nilotinib in plasma and CSF by mass spectrometry
Settings: human, in vivo, 300 mg, AUC, CSF; 300 mg daily
measured_property: AUC

Need AUC, item Cc1cn(-c2cc(NC(=O)c3ccc(C)c(Nc4nccc(-c5cccnc5)n4)c3)cc(C(F)(F)F)c2)cn1
11.3 ng·h/mL

====

Experiment: Nilotinib in plasma and CSF by mass spectrometry
Settings: human, in vivo, 150 mg, Tmax, CSF; 150 mg daily
measured_property: Tmax (h)
Give bare numbers, in h.

Entry Cc1cn(-c2cc(NC(=O)c3ccc(C)c(Nc4nccc(-c5cccnc5)n4)c3)cc(C(F)(F)F)c2)cn1 has what Tmax?
3

====

Test: Nilotinib in plasma and CSF by mass spectrometry
Details: human, in vivo, 300 mg, AUC, Plasma; 300 mg daily
measured_property: AUC (ng·h/mL)
One number for each entry, in ng·h/mL.

Need AUC, item Cc1cn(-c2cc(NC(=O)c3ccc(C)c(Nc4nccc(-c5cccnc5)n4)c3)cc(C(F)(F)F)c2)cn1
3380

====

Assay: Nilotinib in plasma and CSF by mass spectrometry
Conditions: human, in vivo, 150 mg, AUC, CSF; 150 mg daily
measured_property: AUC (ng·h/mL)
Numbers only, in ng·h/mL.

Bench note: what AUC did Cc1cn(-c2cc(NC(=O)c3ccc(C)c(Nc4nccc(-c5cccnc5)n4)c3)cc(C(F)(F)F)c2)cn1 show?
7.59

====

Experiment: Nilotinib in plasma and CSF by mass spectrometry
Details: human, in vivo, 150 mg, Tmax, Plasma; 150 mg daily
measured_property: Tmax (h)
One number for each entry, in h.

For the molecule shown here, Cc1cn(-c2cc(NC(=O)c3ccc(C)c(Nc4nccc(-c5cccnc5)n4)c3)cc(C(F)(F)F)c2)cn1 , give the reported Tmax.
4
